Value source: paper PMC9024338

experiment: Preliminary pharmacokinetics in SD rats
Format: in vivo
condition-details: male, SD, rat, plasma, iv, 2 mg/kg, SD rats, 2 mg/kg iv; read-out: AUC0–last
value-type: AUC(0-t) (ng·h/mL)
One number for each entry, in ng·h/mL.

Lookup result for CC1=CC(=O)[C@@H](O)[C@]2(C)[C@H]3[C@@H](O)[C@H](O)[C@@]4(CO)OC[C@@]35[C@@H](C[C@@H]12)OC(=O)[C@H](O)[C@]54O [BH, Bruceine H] ; measured AUC(0-t): 944

====

experiment: Preliminary pharmacokinetics in SD rats
Assay type: in vivo
condition-details: male, SD, rat, plasma, po, 10 mg/kg, SD rats, 10 mg/kg po; read-out: AUC0–inf
Description: We administered BH by gavage and intravenous administration to SD rats (male, 200–220 g, n = 6) after they had fasted for 12 h. For oral gavage, the BH was dissolved in DMSO/0.5% CMC-Na (5/95, v/v/), and for intravenous administration, it was dissolved in DMSO/0.9% NaCl (5/95, v/v/), and then the blood samples were collected at intervals to determine the pharmacokinetic (PK) profiles of SD rats.
value-type: AUC(0-inf) (ng·h/mL)
Give bare numbers, in ng·h/mL.

Lookup result for CC1=CC(=O)[C@@H](O)[C@]2(C)[C@H]3[C@@H](O)[C@H](O)[C@@]4(CO)OC[C@@]35[C@@H](C[C@@H]12)OC(=O)[C@H](O)[C@]54O [BH, Bruceine H] ; measured AUC(0-inf): 976

====

experiment: Preliminary pharmacokinetics in SD rats
Type: in vivo
condition-details: male, SD, rat, plasma, iv, 2 mg/kg, i.v. 2 mg/kg, 24 h; read-out: Concentration of BH in rat plasma, Mean
Protocol: We administered BH by gavage and intravenous administration to SD rats (male, 200–220 g, n = 6) after they had fasted for 12 h. For oral gavage, the BH was dissolved in DMSO/0.5% CMC-Na (5/95, v/v/), and for intravenous administration, it was dissolved in DMSO/0.9% NaCl (5/95, v/v/), and then the blood samples were collected at intervals to determine the pharmacokinetic (PK) profiles of SD rats.
value-type: concentration at 24 h (ng/mL)
One number for each entry, in ng/mL.

Lookup result for CC1=CC(=O)[C@@H](O)[C@]2(C)[C@H]3[C@@H](O)[C@H](O)[C@@]4(CO)OC[C@@]35[C@@H](C[C@@H]12)OC(=O)[C@H](O)[C@]54O ; measured concentration at 24 h: 7.37

====

experiment: Preliminary pharmacokinetics in SD rats
Format: in vivo
condition-details: male, SD, rat, plasma, iv, 2 mg/kg, rat, i.v.; read-out: λz, individual rats No1-No3 (converted)
value-type: k el (s⁻¹)
One number for each entry, in s⁻¹.

Lookup result for CC1=CC(=O)[C@@H](O)[C@]2(C)[C@H]3[C@@H](O)[C@H](O)[C@@]4(CO)OC[C@@]35[C@@H](C[C@@H]12)OC(=O)[C@H](O)[C@]54O ; measured k el: 2.94e-05

====

experiment: Preliminary pharmacokinetics in SD rats
Assay type: in vivo
condition-details: male, SD, rat, plasma, po, 10 mg/kg, rat, p.o.; read-out: MRT (0-∞), individual rats No1-No3
value-type: MRT inf (h)
One number for each entry, in h.

Lookup result for CC1=CC(=O)[C@@H](O)[C@]2(C)[C@H]3[C@@H](O)[C@H](O)[C@@]4(CO)OC[C@@]35[C@@H](C[C@@H]12)OC(=O)[C@H](O)[C@]54O ; measured MRT inf: 5.5

====

experiment: Preliminary pharmacokinetics in SD rats
Assay type: in vivo
condition-details: male, SD, rat, plasma, iv, 2 mg/kg, rat, i.v.; read-out: AUC (0-t), individual rats No1-No3
value-type: AUC(0-t) (ng·h/mL)
Answers are plain numbers, in ng·h/mL.

Lookup result for CC1=CC(=O)[C@@H](O)[C@]2(C)[C@H]3[C@@H](O)[C@H](O)[C@@]4(CO)OC[C@@]35[C@@H](C[C@@H]12)OC(=O)[C@H](O)[C@]54O [BH, Bruceine H] ; measured AUC(0-t): 965

====

experiment: Preliminary pharmacokinetics in SD rats
Type: in vivo
condition-details: male, SD, rat, plasma, iv, 2 mg/kg, i.v. 2 mg/kg, 0.25 h; read-out: Concentration of BH in rat plasma, individual rats No1-No3
value-type: concentration at 0.25 h (ng/mL)
Numbers only, in ng/mL.

Lookup result for CC1=CC(=O)[C@@H](O)[C@]2(C)[C@H]3[C@@H](O)[C@H](O)[C@@]4(CO)OC[C@@]35[C@@H](C[C@@H]12)OC(=O)[C@H](O)[C@]54O ; measured concentration at 0.25 h: 371

====

experiment: Preliminary pharmacokinetics in SD rats
Format: in vivo
condition-details: male, SD, rat, plasma, po, 10 mg/kg, p.o. 10 mg/kg, 0.25 h; read-out: Concentration of BH in rat plasma, individual rats No1-No3
Description: We administered BH by gavage and intravenous administration to SD rats (male, 200–220 g, n = 6) after they had fasted for 12 h. For oral gavage, the BH was dissolved in DMSO/0.5% CMC-Na (5/95, v/v/), and for intravenous administration, it was dissolved in DMSO/0.9% NaCl (5/95, v/v/), and then the blood samples were collected at intervals to determine the pharmacokinetic (PK) profiles of SD rats.
value-type: concentration at 0.25 h (ng/mL)
One number for each entry, in ng/mL.

Lookup result for CC1=CC(=O)[C@@H](O)[C@]2(C)[C@H]3[C@@H](O)[C@H](O)[C@@]4(CO)OC[C@@]35[C@@H](C[C@@H]12)OC(=O)[C@H](O)[C@]54O [BH, Bruceine H] ; measured concentration at 0.25 h: 13.6

====

experiment: Preliminary pharmacokinetics in SD rats
Format: in vivo
condition-details: male, SD, rat, plasma, iv, 2 mg/kg, SD rats, 2 mg/kg iv; read-out: Half-life (T 1/2) (converted)
Procedure: We administered BH by gavage and intravenous administration to SD rats (male, 200–220 g, n = 6) after they had fasted for 12 h. For oral gavage, the BH was dissolved in DMSO/0.5% CMC-Na (5/95, v/v/), and for intravenous administration, it was dissolved in DMSO/0.9% NaCl (5/95, v/v/), and then the blood samples were collected at intervals to determine the pharmacokinetic (PK) profiles of SD rats.
value-type: half-life (h)
One number for each entry, in h.

Lookup result for CC1=CC(=O)[C@@H](O)[C@]2(C)[C@H]3[C@@H](O)[C@H](O)[C@@]4(CO)OC[C@@]35[C@@H](C[C@@H]12)OC(=O)[C@H](O)[C@]54O [BH, Bruceine H] ; measured half-life: 9.69

====

experiment: Preliminary pharmacokinetics in SD rats
Assay type: in vivo
condition-details: male, SD, rat, plasma, po, 10 mg/kg, SD rats, 10 mg/kg po; read-out: Maximum concentration (C max)
value-type: Cmax (ng/mL)
One number for each entry, in ng/mL.

Lookup result for CC1=CC(=O)[C@@H](O)[C@]2(C)[C@H]3[C@@H](O)[C@H](O)[C@@]4(CO)OC[C@@]35[C@@H](C[C@@H]12)OC(=O)[C@H](O)[C@]54O ; measured Cmax: 147

====

experiment: Preliminary pharmacokinetics in SD rats
Format: in vivo
condition-details: male, SD, rat, plasma, po, 10 mg/kg, p.o. 10 mg/kg, 0.75 h; read-out: Concentration of BH in rat plasma, Mean
Protocol: We administered BH by gavage and intravenous administration to SD rats (male, 200–220 g, n = 6) after they had fasted for 12 h. For oral gavage, the BH was dissolved in DMSO/0.5% CMC-Na (5/95, v/v/), and for intravenous administration, it was dissolved in DMSO/0.9% NaCl (5/95, v/v/), and then the blood samples were collected at intervals to determine the pharmacokinetic (PK) profiles of SD rats.
value-type: concentration at 0.75 h (ng/mL)
Give bare numbers, in ng/mL.

Lookup result for CC1=CC(=O)[C@@H](O)[C@]2(C)[C@H]3[C@@H](O)[C@H](O)[C@@]4(CO)OC[C@@]35[C@@H](C[C@@H]12)OC(=O)[C@H](O)[C@]54O ; measured concentration at 0.75 h: 104

====

experiment: Preliminary pharmacokinetics in SD rats
Type: in vivo
condition-details: male, rat, plasma; SD rats, 10 mg/kg po; read-out: Time of maximum concentration (T max)
value-type: Tmax (h)
Numbers only, in h.

Lookup result for CC1=CC(=O)[C@@H](O)[C@]2(C)[C@H]3[C@@H](O)[C@H](O)[C@@]4(CO)OC[C@@]35[C@@H](C[C@@H]12)OC(=O)[C@H](O)[C@]54O ; measured Tmax: 1
